- System: Candida and Cryptococcus strains (organism not given)
- protocol.summary: Broth microdilution antifungal activity, Table II second MIC/MCC column pair
- Format: cell-based
- protocol.conditions: second column pair of Table II, 48 hrs, 35° C., YNB broth pH 7.0
measured.property: MIC = Minimum inhibitory concentration (50% Inhibition) (µg/mL)

[[record]]
molecule = "C[C@@H]1[C@H](O)[C@@H](C)/C=C/C=C/C=C/C=C/C=C/C=C/C=C/[C@H](O[C@@H]2O[C@H](C)[C@@H](O)[C@H](N)[C@@H]2O)C[C@@H]2O[C@](O)(C[C@@H](O)C[C@@H](O)[C@H](O)CC[C@@H](O)C[C@@H](O)CC(=O)O[C@H]1C)C[C@H](O)[C@H]2C(=O)O [Amp-B, amphotericin B, reference compound]"
reading_unit = "µg/mL"
numeric_result = 0.25


[a] C=CCN(C)Cc1ccc(-c2csc(-c3ccc(OC)c([N+](=O)[O-])c3)n2)cc1 [Example 1kk]
[b] CCCN(C)Cc1ccc(-c2csc(-c3ccc(OC)c([N+](=O)[O-])c3)n2)cc1 [Example 6k]
[c] CCCN(C)Cc1ccc(-c2csc(-c3ccc(C)c([N+](=O)[O-])c3)n2)cc1 [Example 6p]
[d] CN(C)CCSCc1ccc(-c2csc(-c3ccc(Cl)cc3)n2)cc1 [Example 1rr]
[e] CN(C)Cc1ccc(-c2csc(-c3cccc(C#N)c3)n2)cc1 [Example 6o]
**Query** // smallest MIC = Minimum inhibitory concentration (50% Inhibition) at index 0, largest at the end Give the labels in the order requested.
**Result** a, b, c, e, d
(a: 0.25 µg/mL, b: 0.5 µg/mL, c: 1 µg/mL, e: 2 µg/mL, d: 4 µg/mL)

----------
- System: Candida and Cryptococcus strains (organism not given)
- protocol.summary: Broth microdilution antifungal activity, Table II first MIC/MCC column pair
- Format: cell-based
- protocol.conditions: first column pair of Table II, subculture on SDA plate
Recorded measurements of MCC = Minimum cytolytic concentration, one per entry
Please reply with the bare figure in µg/mL and do not write the unit itself.

Worked examples follow.
[[record]]
given_smiles = "CN(C)Cc1ccc(-c2csc(-c3ccc([N+](=O)[O-])cc3)n2)cc1"
measured_property = "MCC = Minimum cytolytic concentration"
reading_unit = "µg/mL"
numeric_result = 2

[[record]]
given_smiles = "C=CCN(C)Cc1ccc(-c2csc(-c3ccc([N+](=O)[O-])cc3)n2)cc1"
measured_property = "MCC = Minimum cytolytic concentration"
reading_unit = "µg/mL"
numeric_result = 2

[[record]]
given_smiles = "CN(C)CCNCc1ccc(-c2csc(-c3ccc(Cl)cc3)n2)cc1"
measured_property = "MCC = Minimum cytolytic concentration"
reading_unit = "µg/mL"
numeric_result = 8

[[record]]
given_smiles = "CCCN(C)Cc1ccc(-c2csc(-c3ccc(C#N)cc3)n2)cc1"
measured_property = "MCC = Minimum cytolytic concentration"
reading_unit = "µg/mL"
numeric_result = 4

[[record]]
given_smiles = "CN(C)Cc1ccc(-c2csc(-c3cccc(C#N)c3)n2)cc1"
measured_property = "MCC = Minimum cytolytic concentration"
reading_unit = "µg/mL"
numeric_result = 4


Then there is this compound:
**Query** Give MCC = Minimum cytolytic concentration for the following compound: COc1ccc(-c2nnc(-c3ccc(CN(C)C)cc3)o2)cc1
**Result** 32

----------
- System: Candida and Cryptococcus strains (organism not given)
- protocol.summary: Broth microdilution antifungal activity, Table II second MIC/MCC column pair
- Format: cell-based
- protocol.conditions: second column pair of Table II, 48 hrs, 35° C., YNB broth pH 7.0
measured.property: MIC = Minimum inhibitory concentration (50% Inhibition) (µg/mL)

Worked examples follow.
[[record]]
molecule = "C=CCN(C)Cc1ccc(-c2csc(-c3ccc(F)cc3)n2)cc1 [Example 1]"
numeric_result = 4

[[record]]
molecule = "CN(C)CCNCc1ccc(-c2csc(-c3ccc(Cl)cc3)n2)cc1 [Example 1jj]"
numeric_result = 4


[1] CCCN(C)Cc1ccc(-c2csc(-c3ccc([N+](=O)[O-])cc3)n2)cc1 [Example 1o]
[2] COc1ccc(-c2nc(-c3ccc(CN(C)C)cc3)cs2)cc1[N+](=O)[O-] [Example 6l]
[3] CN(CCO)Cc1ccc(-c2csc(-c3ccc(Cl)cc3)n2)cc1 [Example 1ee]
**Query** // smallest MIC = Minimum inhibitory concentration (50% Inhibition) at index 0, largest at the end Give the labels in the order requested.
**Result** 2, 1, 3

----------
- Tested on: Candida and Cryptococcus strains (organism not given)
- protocol.summary: Broth microdilution antifungal activity, Table II second MIC/MCC column pair
- Format: cell-based
- protocol.conditions: second column pair of Table II, 48 hrs, 35° C., YNB broth pH 7.0
measured.property: MIC = Minimum inhibitory concentration (50% Inhibition) (µg/mL)

[[record]]
given_smiles = "CN(C)CCN(C)Cc1ccc(-c2csc(-c3ccc(Cl)cc3)n2)cc1"
numeric_result = 4


[A] C=CCN(C)Cc1ccc(-c2csc(-c3cccc([N+](=O)[O-])c3)n2)cc1
[B] CNCCN(C)Cc1ccc(-c2csc(-c3ccc(Cl)cc3)n2)cc1
**Query** Between these two entries, A and B , state which has the higher MIC = Minimum inhibitory concentration (50% Inhibition). Select an item and report its label.
**Result** B

[a] C=CCNCc1ccc(-c2csc(-c3ccc(F)cc3)n2)cc1
[b] CN(C)Cc1ccc(-c2csc(-c3ccc([N+](=O)[O-])cc3)n2)cc1
**Query** Between these two entries, a and b , state which has the higher MIC = Minimum inhibitory concentration (50% Inhibition). Select an item and report its label.
**Result** a

----------
- Tested on: Candida and Cryptococcus strains (organism not given)
- protocol.summary: Broth microdilution antifungal activity, Table II second MIC/MCC column pair
- Type: cell-based
- protocol.conditions: second column pair of Table II, 48 hrs, 35° C., YNB broth pH 7.0
measured.property: MIC = Minimum inhibitory concentration (50% Inhibition) (µg/mL)

[[record]]
molecule = "COc1ccc(-c2nnc(-c3ccc(CN(C)C)cc3)o2)cc1 [Example 9j]"
numeric_result = 8


[I] C=CCN(C)Cc1ccc(-c2csc(-c3ccc([N+](=O)[O-])cc3)n2)cc1 [Example 1h]
[II] CCCN(C)Cc1ccc(-c2csc(-c3ccc(C#N)cc3)n2)cc1 [Example 6e]
[III] OC(Cn1cncn1)(Cn1cncn1)c1ccc(F)cc1F [Fluconazole, reference compound]
**Query** Order the records by MIC = Minimum inhibitory concentration (50% Inhibition), with each subsequent value no larger than the one before. Give the labels in the order requested.
**Result** II, III, I

----------
Recorded measurements of MCC = Minimum cytolytic concentration, one per entry
- Tested on: Candida and Cryptococcus strains (organism not given)
- protocol.summary: Broth microdilution antifungal activity, Table II first MIC/MCC column pair
- Assay type: cell-based
- protocol.conditions: first column pair of Table II, subculture on SDA plate
Please reply with the bare figure in µg/mL and do not write the unit itself.

Worked examples follow.
[[record]]
given_smiles = "CCCN(C)Cc1ccc(-c2csc(-c3ccc(C(F)(F)F)cc3F)n2)cc1"
numeric_result = 16

[[record]]
given_smiles = "C=CCN(C)Cc1ccc(-c2csc(-c3ccc(OC)c([N+](=O)[O-])c3)n2)cc1"
numeric_result = 2

[[record]]
given_smiles = "C=CCN(C)Cc1ccc(-c2csc(-c3ccc(Cl)cc3)n2)cc1"
numeric_result = 8


**Query** Please tell me the measured MCC = Minimum cytolytic concentration for COc1ccc(-c2nc(-c3ccc(CN(C)CCO)cc3)cs2)cc1[N+](=O)[O-] ; system: Candida and Cryptococcus strains (organism not given).
**Result** 8

**Query** Please tell me the measured MCC = Minimum cytolytic concentration for CN(CCO)Cc1ccc(-c2csc(-c3ccc(Cl)cc3)n2)cc1 ; system: Candida and Cryptococcus strains (organism not given).
**Result** 16

**Query** Please tell me the measured MCC = Minimum cytolytic concentration for CCCN(C)Cc1ccc(-c2csc(-c3ccc(I)cc3)n2)cc1 ; system: Candida and Cryptococcus strains (organism not given).
**Result** 4

----------
- System: Candida and Cryptococcus strains (organism not given)
- protocol.summary: Broth microdilution antifungal activity, Table II first MIC/MCC column pair
- Assay type: cell-based
- protocol.conditions: first column pair of Table II, subculture on SDA plate
- Protocol: Organisms: Three strains of Candida (Candida parpsilosis, Candida tropicalis, Candida albicans-ATCC 36082) as well as Cryptococcus neoformans were used for the initial testing. […] The singlet blastospores were counted in a hemocytometer and adjusted to the desired concentration in 0.85% NaCl. Antifungal Activity: The antifungal activity of the compounds and Fluconazole against the Candida and Cryptococcus strains were determined using a modification of a broth microdilution technique. […]
Recorded measurements of MCC = Minimum cytolytic concentration, one per entry
Please reply with the bare figure in µg/mL and do not write the unit itself.

[[record]]
given_smiles = "CN(C)CCSCc1ccc(-c2csc(-c3ccc(Cl)cc3)n2)cc1"
target_entity = "Candida and Cryptococcus strains (organism not given)"
measured_property = "MCC = Minimum cytolytic concentration"
numeric_result = 8

[[record]]
given_smiles = "CCCN(C)Cc1ccc(-c2csc(-c3ccc(C)c([N+](=O)[O-])c3)n2)cc1"
target_entity = "Candida and Cryptococcus strains (organism not given)"
measured_property = "MCC = Minimum cytolytic concentration"
numeric_result = 8

[[record]]
given_smiles = "C=CCN(C)Cc1ccc(-c2csc(-c3ccc(F)cc3)n2)cc1"
target_entity = "Candida and Cryptococcus strains (organism not given)"
measured_property = "MCC = Minimum cytolytic concentration"
numeric_result = 16


**Query** Give MCC = Minimum cytolytic concentration for the following molecule: CNCCN(C)Cc1ccc(-c2csc(-c3ccc(Cl)cc3)n2)cc1
**Result** 16

**Query** Give MCC = Minimum cytolytic concentration for the following molecule: C=CCNCc1ccc(-c2csc(-c3ccc(F)cc3)n2)cc1
**Result** 16

**Query** Give MCC = Minimum cytolytic concentration for the following molecule: CCCN(C)Cc1ccc(-c2csc(-c3ccc(OC)c([N+](=O)[O-])c3)n2)cc1
**Result** 2

**Query** Give MCC = Minimum cytolytic concentration for the following molecule: C=CCN(C)Cc1ccc(-c2csc(-c3cccc([N+](=O)[O-])c3)n2)cc1
**Result** 1

**Query** Give MCC = Minimum cytolytic concentration for the following molecule: COc1ccc(-c2nc(-c3ccc(CN(C)C)cc3)cs2)cc1[N+](=O)[O-]
**Result** 1

**Query** Give MCC = Minimum cytolytic concentration for the following molecule: CN(C)CCN(C)Cc1ccc(-c2csc(-c3ccc(Cl)cc3)n2)cc1
**Result** 8

**Query** Give MCC = Minimum cytolytic concentration for the following molecule: CN(C)Cc1ccc(-c2csc(-c3cccc([N+](=O)[O-])c3)n2)cc1
**Result** 4

**Query** Give MCC = Minimum cytolytic concentration for the following molecule: CCCN(C)Cc1ccc(-c2csc(-c3ccc([N+](=O)[O-])cc3)n2)cc1
**Result** 4
